test: Half life in human liver microsomes at 10 uM in presence of NADPH by LC-MS/MS analysis; assay type: ADME, microsome; settings: liver microsomes
Metric: half-life at 10 µM (min)

Reference set, count: 6
1. Cc1ccccc1S(=O)(=O)N1CCN(c2ccc(C(=O)NCc3ccc(F)cc3)nn2)CC1 ... 34
2. O=C(NCc1ccc(F)cc1)c1ccc(N2CC3(C2)CN(S(=O)(=O)c2cccnc2Cl)C3)nn1 ... 0.35
3. Cc1ccccc1S(=O)(=O)N1CCN(c2cnc(C(=O)NCc3ccc(F)cc3)cn2)CC1 ... 2
4. O=C(NCc1ccccc1)c1ccc(N2CCC(S(=O)(=O)c3cccc(Cl)c3Cl)CC2)nn1 ... 27
5. Cc1ccccc1S(=O)(=O)N1CC2(CN(c3ccc(C(=O)NCc4ccc(F)cc4)nn3)C2)C1 ... 1
6. O=C(NCc1ccccc1)c1ccc(N2CCN(S(=O)(=O)c3cccc(Cl)c3Cl)CC2)nn1 ... 16

(1) Cc1ccccc1S(=O)(=O)N1CCN(c2ccc(C(=O)NCc3cccs3)nn2)CC1
(2) Cc1ccccc1S(=O)(=O)N1CCN(c2ccc(C(=O)NCc3cncs3)nn2)CC1
Exam item: Form field 'greater half-life at 10 µM' accepts 1 or 2 ; which applies? Let me know the label of the one you choose.
Marked response: 2

====

assay: Extraction ratio in human liver microsomes at 10 uM in presence of NADPH by LC-MS/MS analysis; format: ADME, microsome; settings: read-out: ERH
Metric: hepatic extraction ratio at 10 µM

Reference set, count: 6
1. Cc1ccccc1S(=O)(=O)N1CCN(c2ccc(C(=O)NCc3ccc(F)cc3)nn2)CC1 ... 0.56
2. O=C(NCc1ccccc1)c1ccc(N2CCN(S(=O)(=O)c3cccc(Cl)c3Cl)CC2)nn1 ... 0.73
3. Cc1ccc(F)cc1S(=O)(=O)N1CCN(c2ccc(C(=O)NCc3ccc(F)cc3)nn2)CC1 ... 0.78
4. Cc1ccccc1S(=O)(=O)N1CC=C(c2ccc(C(=O)NCc3ccc(F)cc3)nn2)CC1 ... 0.96
5. Cc1ccccc1S(=O)(=O)N1CCN(c2ccc(C(=O)NCc3ccccc3)nn2)CC1 ... 0.93
6. O=C(NCc1ccccc1)c1ccc(N2CCN(S(=O)(=O)c3ccccc3Cl)CC2)nn1 ... 0.89

(I) Cc1ccccc1S(=O)(=O)N1CCN(c2cnc(C(=O)NCc3ccc(F)cc3)cn2)CC1
(II) O=C(NCc1ccccc1)c1ccc(N2CCC(S(=O)(=O)c3cccc(Cl)c3Cl)CC2)nn1
(III) O=C(NCc1ccc(F)cc1)c1ccc(N2CC3(C2)CN(S(=O)(=O)c2cccnc2Cl)C3)nn1
Exam item: Ascending by hepatic extraction ratio at 10 µM, please: list the compounds accordingly. Sort the labels as requested; that list is your answer.
Marked response: III, II, I

====

assay: Half life in mouse liver microsomes at 10 uM in presence of NADPH by LC-MS/MS analysis; format: ADME, microsome; conditions: liver microsomes
Metric: half-life at 10 µM (min)

Reference set, count: 2
1. N#Cc1ncccc1S(=O)(=O)N1CCN(c2ccc(C(=O)NCc3ccc(F)cc3)[n+]([O-])n2)CC1 ... 16
2. O=C(NCc1ccc(F)cc1)c1ccc(N2CCN(S(=O)(=O)c3cccnc3Cl)CC2)nn1 ... 13

(1) Cc1cc(F)ccc1S(=O)(=O)N1CCN(c2ccc(C(=O)NCc3ccc(F)cc3)nn2)CC1
(2) O=C(NCc1ccc(F)cc1)c1ccc(N2CC3(C2)CN(S(=O)(=O)c2cccnc2Cl)C3)nn1
Exam item: Form field 'greater half-life at 10 µM' accepts 1 or 2 ; which applies? Let me know the label of the one you choose.
Marked response: 2
(2: 113 min, 1: 15 min)

(I) O=C(NCc1ccccc1)c1ccc(N2CCC(S(=O)(=O)c3cccc(Cl)c3Cl)CC2)nn1
(II) Cc1ccccc1S(=O)(=O)N1CCN(c2cnc(C(=O)NCc3ccc(F)cc3)cn2)CC1
(III) O=C(NCc1ccc(F)cc1)c1ccc(N2CCN(S(=O)(=O)c3cccnc3N3CCOCC3)CC2)nn1
(IV) O=C(NCc1ccccc1)c1ccc(N2CCN(S(=O)(=O)c3cccc(Cl)c3Cl)CC2)nn1
Exam item: # sort list by recorded half-life at 10 µM, greatest to least Sort the labels as requested; that list is your answer.
Marked response: I, IV, II, III
(I: 20 min, IV: 14 min, II: 3 min, III: 2 min)

(A) Cc1ccccc1S(=O)(=O)N1CCN(c2ccc(C(=O)NCc3cncs3)nn2)CC1
(B) Cc1ccccc1S(=O)(=O)N1CCN(c2ccc(C(=O)NCc3cccs3)nn2)CC1
(C) Cc1ccc(F)cc1S(=O)(=O)N1CCN(c2ccc(C(=O)NCc3ccc(F)cc3)nn2)CC1
(D) O=C(NCc1ccc(F)cc1)c1ccc(N2CCN(S(=O)(=O)c3ccc(F)cc3C(F)(F)F)CC2)nn1
(E) Cc1ccccc1S(=O)(=O)N1CC=C(c2ccc(C(=O)NCc3ccc(F)cc3)nn2)CC1
Exam item: Ascending by half-life at 10 µM, please: list the compounds accordingly. Sort the labels as requested; that list is your answer.
Marked response: B, E, D, A, C
(B: 2 min, E: 5 min, D: 12 min, A: 18 min, C: 68 min)

(A) Cc1ccccc1S(=O)(=O)N1CC2(CN(c3ccc(C(=O)NCc4ccc(F)cc4)nn3)C2)C1
(B) Nc1ncccc1S(=O)(=O)N1CCN(c2ccc(C(=O)NCc3ccc(F)cc3)nn2)CC1
Exam item: Form field 'greater half-life at 10 µM' accepts A or B ; which applies? Let me know the label of the one you choose.
Marked response: B
(B: 19 min, A: 2 min)

(P) O=C(NCc1ccccc1)c1ccc(N2CCN(S(=O)(=O)c3ccccc3Cl)CC2)nn1
(Q) N#Cc1ncccc1S(=O)(=O)N1CCN(c2ccc(C(=O)NCc3ccc(F)cc3)nn2)CC1
(R) O=C(NCc1ccc(F)cc1)c1ccc(N2CCN(S(=O)(=O)c3ccccc3C(F)(F)F)CC2)nn1
(S) O=C(NCc1ccc(F)cc1)c1ccc(N2CCN(S(=O)(=O)c3cccnc3O)CC2)nn1
Exam item: Ascending by half-life at 10 µM, please: list the compounds accordingly. Sort the labels as requested; that list is your answer.
Marked response: P, Q, R, S

====

assay: Extraction ratio in mouse liver microsomes at 10 uM in presence of NADPH by LC-MS/MS analysis; type: ADME, microsome; settings: read-out: ERH
Metric: hepatic extraction ratio at 10 µM

Reference set, count: 3
1. Cc1cc(F)ccc1S(=O)(=O)N1CCN(c2ccc(C(=O)NCc3ccc(F)cc3)nn2)CC1 ... 0.8
2. Cc1ccccc1S(=O)(=O)N1CC=C(c2ccc(C(=O)NCc3ccc(F)cc3)nn2)CC1 ... 0.94
3. O=C(NCc1ccccc1)c1ccc(N2CCN(S(=O)(=O)c3cccc(Cl)c3Cl)CC2)nn1 ... 0.81

(P) O=C(NCc1ccccc1)c1ccc(N2CCN(S(=O)(=O)c3ccccc3Cl)CC2)nn1
(Q) Cc1ccc(F)cc1S(=O)(=O)N1CCN(c2ccc(C(=O)NCc3ccc(F)cc3)nn2)CC1
Exam item: Form field 'greater hepatic extraction ratio at 10 µM' accepts P or Q ; which applies? Let me know the label of the one you choose.
Marked response: P
(P: 0.97, Q: 0.47)

====

assay: Half life in mouse liver microsomes at 10 uM in presence of NADPH by LC-MS/MS analysis; type: ADME, microsome; settings: liver microsomes
Metric: half-life at 10 µM (min)

Reference set, count: 2
1) Cc1ncccc1S(=O)(=O)N1CCN(c2ccc(C(=O)NCc3ccc(F)cc3)nn2)CC1 ... 8
2) Cc1ccccc1S(=O)(=O)N1CCN(c2ccc(C(=O)NCc3ccc(F)cc3)nn2)CC1 ... 26

(A) Cc1nc(C(F)(F)F)ccc1S(=O)(=O)N1CCN(c2ccc(C(=O)NCc3ccc(F)cc3)nn2)CC1
(B) O=C(NCc1ccc(F)cc1)c1ccc(N2CCN(S(=O)(=O)c3cccnc3C3CC3)CC2)nn1
Exam item: Form field 'greater half-life at 10 µM' accepts A or B ; which applies? Let me know the label of the one you choose.
Marked response: A

====

assay: Extraction ratio in mouse liver microsomes at 10 uM in presence of NADPH by LC-MS/MS analysis; assay type: ADME, microsome; details: read-out: ERH
Metric: hepatic extraction ratio at 10 µM

1) Cc1ccccc1S(=O)(=O)N1CCN(c2ccc(C(=O)NCc3cncs3)nn2)CC1 ... 0.77
2) Cc1ccccc1S(=O)(=O)N1CCN(c2ccc(C(=O)NCc3cccs3)nn2)CC1 ... 0.97
3) Cc1ccccc1S(=O)(=O)N1CC2(CN(c3ccc(C(=O)NCc4ccc(F)cc4)nn3)C2)C1 ... 0.98
4) O=C(NCc1ccc(F)cc1)c1ccc(N2CCN(S(=O)(=O)c3ccccc3C(F)(F)F)CC2)nn1 ... 0.66
5) O=C(NCc1ccccc1)c1ccc(N2CCC(S(=O)(=O)c3cccc(Cl)c3Cl)CC2)nn1 ... 0.75
6) Cc1ccccc1S(=O)(=O)N1CCN(c2ccc(C(=O)NCc3ccccc3)nn2)CC1 ... 0.97
7) O=C(NCc1ccc(F)cc1)c1ccc(N2CCN(S(=O)(=O)c3ccc(F)cc3C(F)(F)F)CC2)nn1 ... 0.84
8) Cc1ccccc1S(=O)(=O)N1CCN(c2cnc(C(=O)NCc3ccc(F)cc3)cn2)CC1 ... 0.95
9) Cc1ccccc1S(=O)(=O)N1CCN(c2ccc(C(=O)NCc3ccc(F)cc3)nn2)CC1 ... 0.7
